# Organism: Rattus norvegicus
# method: Open TG-GATES - Regimen: Single
# Type: toxicity, organism-based, Sprague-Dawley
# Set-up: regimen Single, gender Male, age 6 weeks
# protocol_conditions: in vivo, po, 0 mg/kg, 9 h, tissue Plasma, route gavage, dose level Control
The label is Fulfilled for CRE below 0.2 mg/dL and Not fulfilled for CRE equal to or exceeding 0.2 mg/dL.

- Oc1ncnc2[nH]ncc12: Not fulfilled
- CC(C)C(=O)Nc1ccc([N+](=O)[O-])c(C(F)(F)F)c1 [FLUTAMIDE]: Not fulfilled
- C[C@](N)(Cc1ccc(O)c(O)c1)C(=O)O: Fulfilled
- CC(=N)S [THIOACETAMIDE]: Not fulfilled
